Target: human RORγt ligand binding domain (RORγt LBD) (Homo sapiens (Human), UniProt P51449)
Sequence (P51449 other isoform, or with tags, fused parts or gaps): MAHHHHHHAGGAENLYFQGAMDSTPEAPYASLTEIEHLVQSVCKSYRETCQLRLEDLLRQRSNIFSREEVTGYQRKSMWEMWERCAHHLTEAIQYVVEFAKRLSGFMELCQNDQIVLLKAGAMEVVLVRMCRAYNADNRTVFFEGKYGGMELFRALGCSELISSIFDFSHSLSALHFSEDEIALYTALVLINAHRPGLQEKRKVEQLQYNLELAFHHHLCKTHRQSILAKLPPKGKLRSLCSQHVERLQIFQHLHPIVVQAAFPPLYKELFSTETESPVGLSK
Assay: RORγt ThermoFluor® assay (thermal shift binding)
Conditions: read-out: ThermoFluor® Assay, Kd
pKd: −log10 of the molar value.
Threshold check on pKd: at or above 9 gives 1.0, strictly below gives 0.0.

>>> df
                           substance_smiles  class_name
0  C[C@H](Nc1cc(C(F)F)c(-c2sc(C(=O)N[C@H]3CC[C@H](O)C3)nc2C(=O)N2C3CCC2CC3)cn1)C(F)(F)F         0.0
1  C[C@H]1CCCCN1C(=O)c1nc(C(=O)NC2CCS(=O)(=O)CC2)sc1-c1cnc(NC2CCCC2)cc1C(F)(F)F         1.0

###

Target: full-length human RORγt (Homo sapiens (Human))
Sequence (P51449 other isoform, or with tags, fused parts or gaps): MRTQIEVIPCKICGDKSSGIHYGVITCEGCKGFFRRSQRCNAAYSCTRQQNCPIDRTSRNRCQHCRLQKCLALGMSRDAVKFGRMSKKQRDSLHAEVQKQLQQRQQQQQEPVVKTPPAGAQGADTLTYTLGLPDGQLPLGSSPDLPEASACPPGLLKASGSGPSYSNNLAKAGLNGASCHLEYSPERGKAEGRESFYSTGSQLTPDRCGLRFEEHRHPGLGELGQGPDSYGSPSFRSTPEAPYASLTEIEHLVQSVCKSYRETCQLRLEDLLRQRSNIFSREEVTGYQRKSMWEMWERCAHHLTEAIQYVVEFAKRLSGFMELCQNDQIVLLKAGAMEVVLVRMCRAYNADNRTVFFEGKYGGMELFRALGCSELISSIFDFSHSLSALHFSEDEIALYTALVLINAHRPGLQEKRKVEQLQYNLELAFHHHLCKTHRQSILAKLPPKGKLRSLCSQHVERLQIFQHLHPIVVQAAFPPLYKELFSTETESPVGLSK
Assay: RORγt (full-length human) reporter assay, Conditions B or C
Assay type: cell-based
Details: Conditions B or C; read-out: RORγt (FL) Reporter Assay B or C, IC50

molecule	IC50, nM
CCC(C)(C)Nc1cc(C(F)(F)F)c(-c2sc(C(=O)NCC(C)(C)O)nc2C(=O)N2CCC[C@@H]2C)cn1	18
CC[C@@H](Nc1cc(C(F)F)c(-c2sc(C(=O)N[C@@H]3COC[C@H]3O)nc2C(=O)N2CCC[C@@H]2C)cn1)C(F)(F)F	24
C[C@H]1CC(F)(F)CN1C(=O)c1nc(C(=O)NCC(C)(C)O)sc1-c1cnc(NC(C2CC2)C2CC2)cc1C(F)(F)F	12
C[C@H](Nc1cc(C(F)F)c(-c2sc(C(=O)N[C@H]3C[C@H](O)C3)nc2C(=O)N2CCC[C@@H]2C)cn1)C(F)(F)F	540
CC[C@H](Nc1cc(C(F)F)c(-c2sc(C(=O)N[C@@H]3COC[C@H]3O)nc2C(=O)N2C3CCC2CC3)cn1)C(F)(F)F	54
C[C@H](Nc1cc(C(F)F)c(-c2sc(C(=O)N[C@H]3COC[C@@H]3O)nc2C(=O)N2CC(F)(F)C[C@@H]2C)cn1)C(F)(F)F	34
C[C@H](O)[C@@H](C)NC(=O)c1nc(C(=O)N2CCC[C@@H]2C)c(-c2cnc(NC(C)(C)C)cc2C(F)(F)F)s1 (relative stereo)	34
C[C@H]1CC(F)(F)CN1C(=O)c1nc(C(=O)NC2COCC2O)sc1-c1cnc(NC2(C)CCC2)cc1C(F)(F)F (stereo in doubt) [Example 185]	15
CC[C@H](Nc1cc(C(F)F)c(-c2sc(C(=O)N[C@@H]3CCC[C@H]3O)nc2C(=O)N2C3CCC2CC3)cn1)C(F)(F)F	6.8
CC(C)(O)CNC(=O)c1nc(C(=O)N2C3CCC2CC3)c(-c2cnc(NC3(C(F)(F)F)CCC3)cc2C(F)(F)F)s1	11
C[C@H]1CC(F)(F)CN1C(=O)c1nc(C(=O)NCC(C)(C)O)sc1-c1cnc(NC2(C)CCC2)cc1C(F)F	200
C[C@H](Nc1cc(C(F)F)c(-c2sc(C(=O)N[C@H]3C[C@@H]3O)nc2C(=O)N2CCC[C@@H]2C)cn1)C(F)(F)F (single isomer, unassigned) [Example 158]	310
C[C@H]1CCCN1C(=O)c1nc(C(=O)NCC(C)(C)O)sc1-c1cnc(NC(C)(C)C2CC2)cc1C(F)F	15
C[C@H]1CCCN1C(=O)c1nc(C(=O)NCC(C)(C)O)sc1-c1cnc(NC(C2CC2)C2CC2)cc1C(F)F	18
C[C@H]1CCCN1C(=O)c1nc(C(=O)NC[C@@H](O)C(C)(C)O)sc1-c1cnc(NC(C)(C)C)cc1C(F)(F)F (single isomer, unassigned)	6.8
C[C@H]1CC(F)(F)CN1C(=O)c1nc(C(=O)NCC(C)(C)O)sc1-c1cnc(NC(C)(C)C)cc1C(F)F	39
C[C@H](Nc1cc(C(F)F)c(-c2sc(C(=O)NCC(C)(C)O)nc2C(=O)N2C3CCC2CC3)cn1)C(F)(F)F	790
C[C@H]1CCCCN1C(=O)c1nc(C(=O)NCC(C)(C)O)sc1-c1cnc(NC(C)(C)C2CC2)cc1C(F)F	10
C[C@H]1CCCCN1C(=O)c1nc(C(=O)NCC(C)(C)O)sc1-c1cnc(NC2CCCC2)cc1C(F)(F)F	8.4
CC(C)(O)CNC(=O)c1nc(C(=O)N2C3CCC2CC3)c(-c2cnc(NC3CCCC3)cc2C(F)F)s1	29
CC[C@H](Nc1cc(C(F)F)c(-c2sc(C(=O)N[C@@H]3CCC[C@H]3O)nc2C(=O)N2CCC[C@@H]2C)cn1)C(F)(F)F	58
C[C@H]1CCCN1C(=O)c1nc(C(=O)NCC(C)(C)O)sc1-c1cnc(NC(C)(C)C)cc1C(F)(F)F	8.8
CC[C@@H](Nc1cc(C(F)F)c(-c2sc(C(=O)N[C@H]3COC[C@@H]3O)nc2C(=O)N2CCC[C@@H]2C)cn1)C(F)(F)F	19
[2H]C([2H])([2H])C(O)(CNC(=O)c1nc(C(=O)N2CCC[C@@H]2C)c(-c2cnc(NC(C)(C)C)cc2C(F)(F)F)s1)C([2H])([2H])[2H]	20
C[C@H](Nc1cc(C(F)F)c(-c2sc(C(=O)NC3CS(=O)(=O)C3)nc2C(=O)N2CC(F)(F)C[C@@H]2C)cn1)C(F)(F)F	37
